Biological target: UniProtKB P11150
Sequence (P11150 23-499, species assumed): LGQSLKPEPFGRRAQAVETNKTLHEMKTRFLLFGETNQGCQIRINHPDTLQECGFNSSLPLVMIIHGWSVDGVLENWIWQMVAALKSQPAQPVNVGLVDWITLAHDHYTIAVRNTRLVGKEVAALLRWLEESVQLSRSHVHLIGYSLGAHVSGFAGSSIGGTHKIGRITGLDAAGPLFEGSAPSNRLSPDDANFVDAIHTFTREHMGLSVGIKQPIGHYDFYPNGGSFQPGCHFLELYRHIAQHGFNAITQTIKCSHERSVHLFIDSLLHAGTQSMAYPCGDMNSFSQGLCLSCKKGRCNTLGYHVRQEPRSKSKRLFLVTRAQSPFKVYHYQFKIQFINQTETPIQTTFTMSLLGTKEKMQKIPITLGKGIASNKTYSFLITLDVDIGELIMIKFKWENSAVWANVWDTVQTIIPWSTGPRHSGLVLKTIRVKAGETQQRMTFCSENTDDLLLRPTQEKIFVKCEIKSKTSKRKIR
Assay: HL assay: hepatic lipase activity with fluorescent substrate A10070 in DMPG vesicles
Type: biochemical
pIC50: −log10 of the molar value.
Assay endpoint: pIC50

[
  {
    "Molecule": "COCCNC(=O)c1ccc(-c2cc3sc(C(C(=O)NCc4nnc(C)o4)S(=O)(=O)CCOC)nc3cc2F)cc1 (centres unmarked)",
    "pIC50": 6.05
  },
  {
    "Molecule": "COCCn1cc(-c2ccc3nc(C(C(=O)NCCS(N)(=O)=O)S(=O)(=O)CC4CC4)sc3c2)cn1 (centres unmarked)",
    "pIC50": 6.50
  }
]

I. NS(=O)(=O)CCNC(=O)C(c1nc2ccc(-c3ccc(C(=O)N4CCOCC4)cc3)cc2s1)S(=O)(=O)CC1CC1 (centres unmarked) [Example B283]
II. COCCS(=O)(=O)C(C(=O)NCCS(N)(=O)=O)c1nc2ccc(Br)cc2s1 (centres unmarked)
III. NS(=O)(=O)CCNC(=O)C(c1nc2ccc(-c3ccc(CCO)cc3)cc2s1)S(=O)(=O)Cc1ccc(F)cc1 (centres unmarked)
Could you please sort these 3 entries by pIC50 from high to low? Reply: labels, ordered per the request.
III, I, II
